Tested on: winter wheat (Triticum aestivum)
assay_notes: Test C postemergence
Format: in vivo
run_parameters: Triticum aestivum, post-emergence, 336 h; Postemergence, 62 g ai/ha, scale 0 to 100; read-out: Plant response rating, Wheat
measurement_type: plant injury at 62 g/ha (%)

INSERT INTO assay_data (compound, assay_result) VALUES
  ('Fc1cnc(Oc2c(Cl)cccc2Oc2ncc(Cl)cn2)nc1 [Compound 18]', 0),
  ('Clc1cnc(Oc2cccc(Cl)c2Oc2ncc(Br)cn2)nc1 [Compound 17]', 0),
  ('N#Cc1cccc(Oc2ncc(Cl)cn2)c1Oc1ncc(C(F)(F)F)cn1 [Compound 38]', 0),
  ('N#Cc1cccc(Oc2ncc(C(F)(F)F)cn2)c1Oc1ncc(Cl)cn1 [Compound 39]', 5),
  ('N#Cc1cccc(Oc2ncc(Cl)cn2)c1Oc1ncc(Br)cn1 [Compound 4]', 5);
